meta.source: PubChem BioAssay (NCATS)

TARGET_OR_SYSTEM: Glucocorticoid receptor (Homo sapiens)
PROTOCOL_TEXT: qHTS assay for small molecule agonists of glucocorticoid receptor signaling (AID 588532);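 further: 100% = dexamethasone at 0.1 µM and 0% = DMSO only wells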
STUDY_CONDITIONS: HeLa MMTV-bla, beta-lactamase ratio, agonist, 18 h; hits give high values; percent of dexamethasone control, DMSO zero
Results filed as inconclusive are left out.
Entries and their activation
MEASURE: activation (%)

> print(dat)
                          chemical.string                        target.or.system  endpoint.value
1                 CCCC(=O)c1cc(O)c(O)cc1O  Glucocorticoid receptor (Homo sapiens)            7.26
2  O=C(Oc1ccccc1)c1cccc(C(=O)Oc2ccccc2)c1  Glucocorticoid receptor (Homo sapiens)           -8.17
3  COC(=O)c1c(Cl)c(Cl)c(C(=O)OC)c(Cl)c1Cl  Glucocorticoid receptor (Homo sapiens)           -1.01
4     O=C(Nc1ccc(Cl)cc1)Nc1ccc(Cl)c(Cl)c1  Glucocorticoid receptor (Homo sapiens)            4.25
5                     Brc1ccccc1-c1ccccc1  Glucocorticoid receptor (Homo sapiens)            8.87

###

PROTOCOL_TEXT: MultiTox-Fluor Cytotoxicity Assay - LYMP1-003 - Dead Cells (AID 961);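 further: cells exposed to compound for 16 h at 37 °C; 0% = DMSO and 100% = tetraoctylammonium bromide; nearly all actives have a fitted effect of over 70% in size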
STUDY_CONDITIONS: LYMP1-003 lymphoblastoid cells, dead-cell protease fluorescence; series mostly up to 92.2 µM
Active and inactive are the calls of the source. Calls come from the whole dose curve; as a rule, active = well fitted cell-killing curve with a large enough effect; inconclusive = small, poorly fitted or top-dose-only effect, or effect the other way; inactive = flat fitted curve, though single readings scatter.
MEASURE: outcome

> print(dat)
               chemical.string  measure  endpoint.value
1              O=C(NO)c1ccccc1  outcome        inactive
2  CC(C)C(C)(C)C(C)(C)C(C)(C)S  outcome        inactive
3           OCc1c[nH]c2ccccc12  outcome        inactive

###

PROTOCOL_TEXT: qHTS of pediatric cancer cell lines to identify multiple opportunities for drug repurposing: Primary screen for NB-EBc1 cells (AID 1347095)
STUDY_CONDITIONS: NB-EBc1 neuroblastoma viability, CellTiter-Glo luminescence, 48 h; series mostly up to 46 µM
Description: Drug repurposing or repositioning has been offered as a strategy for drug development in oncology programs. This approach has special potential for childhood cancers and other rare or orphan diseases, where the expected return on new drug development has been a disincentive to pharmaceuticals. […] We employed a titration-based paradigm (quantitative high-throughput screening or qHTS), where all compounds were tested at multiple concentrations for their effect on cell viability. […]
Results filed as inconclusive are left out. Calls of active or inactive are those of the source. Calls come from the whole dose curve; as a rule, active = well fitted cell-killing curve with a large enough effect; inconclusive = small, poorly fitted or top-dose-only effect; inactive = no such curve, though single readings can be large or run the other way.
Classes used: TRUE for active, FALSE for inactive

> print(dat)
                                    molecule  assigned.category
 1    O=C(Oc1ccccc1)c1cccc(C(=O)Oc2ccccc2)c1              FALSE
 2  CCN(CC)C(=O)C1CN2CCc3cc(OC)c(OC)cc3C2CC1OC(C)=O (stereo unspecified)              FALSE
 3         O=C(O)C(=O)Nc1cccc(-c2nn[nH]n2)c1              FALSE
 4  Cc1nc([N+](=O)[O-])cn1-c1ccc([N+](=O)[O-])cc1              FALSE
 5  COc1ccc(OC(=O)N(CC(=O)O)Cc2ccc(OCCc3nc(-c4ccccc4)oc3C)cc2)cc1              FALSE
 6  O=c1[nH]c(=O)n([C@H]2O[C@H](CO)[C@@H](O)[C@@H]2O)cc1/C=C\Br              FALSE
 7  CC(=O)OCC(=O)[C@@]1(O)[C@H](OC(C)=O)C[C@H]2[C@@H]3CCC4=CC(=O)C=C[C@]4(C)[C@@]3(F)[C@@H](O)C[C@@]21C              FALSE
 8  Nc1c(I)cc(I)c(C(=O)N(CCC(=O)O)c2ccccc2)c1I              FALSE
 9  CC1(C)O[C@@H]2C[C@H]3[C@@H]4C[C@H](F)C5=CC(=O)C=C[C@]5(C)[C@@]4(F)[C@@H](O)C[C@]3(C)[C@]2(C(=O)CO)O1              FALSE
10                                CCN(CC)CCN              FALSE
11  CC(C)(C)C(=O)OCOC(=O)C1N2C(=O)CC2S(=O)(=O)C1(C)C (stereo unspecified)              FALSE
12                           O=C(O)c1ccccc1S              FALSE
13       O=C(NN1CCCC1)NS(=O)(=O)c1ccc(Cl)cc1              FALSE
14  CN1[C@@H]2CC[C@H]1CC(NC(=O)n1c(=O)[nH]c3ccccc31)C2 (stereo partly specified)              FALSE
15          CCNC(=O)NCCCOc1cccc(CN2CCCCC2)c1              FALSE
16  Cc1cccc(C)c1NC(=O)c1cc(S(N)(=O)=O)c(Cl)cc1O              FALSE
17                      Cc1c(N)cccc1C(F)(F)F              FALSE
18  CSc1ccc(/C=C2/C(C)=C(CC(=O)O)c3cc(F)ccc32)cc1              FALSE
19  CC(C)(C)NCC(O)COc1ccccc1OCC1CCCO1 (stereo unspecified)              FALSE
20             CC(C)(c1ccc(O)cc1)c1ccc(O)cc1              FALSE
21  CC(C)=CCC/C(C)=C/CC/C(C)=C/C(=O)OCC(=O)[C@@]1(O)CC[C@H]2[C@@H]3CCC4=CC(=O)C=C[C@]4(C)[C@H]3[C@@H](O)C[C@@]21C               TRUE
